Below is a list of entries, each paired with its recorded MIC value.
Tested on: Salmonella enterica strain AMC (ATCC #6539)
assay-text: Antibiotic assay: MIC by Promega Bac Titer-Glo microbial cell viability assay
Type: cell-based
reported-conditions: Salmonella enterica, ATCC6539, 24 h, 24 hours treatment, inoculum ~5×10^4 CFU/mL, Mueller Hinton broth, read-out: MIC

Some compounds with recorded MIC:
CC1(C)CCn2c(=O)c(=O)n(C[C@H](O)[C@H](O)[C@H](O)CO)c3cccc1c32    > 16 µg/mL
Cc1cc2c3c(c1C)C(C)(C)CCn3c(=O)c(=O)n2CC(O)CO (stereo not drawn)    > 16 µg/mL
CC1(C)CCn2c(=O)c(OC[C@H](O)[C@@H](O)CO)nc3cccc1c32    16 µg/mL

Req: I am curious: what MIC value has been reported for COC1O[C@H](Cn2c(=O)n3c4c(cccc42)C(C)(C)CC3)[C@@H](O)[C@H]1O (stereo partly drawn) ?
Resp: 2 µg/mL

Req: Thanks! And CC(O)C(O)Cn1c(=O)c(=O)n2c3c(cccc31)C(C)(C)CC2 (stereo not drawn) ?
Resp: > 16 µg/mL

Req: Thanks! And COC1O[C@H](Cn2c(=O)c(=O)n3c4c(cccc42)C(C)(C)CC3)[C@@H](O)[C@H]1O (stereo partly drawn) ?
Resp: > 16 µg/mL

Req: Thanks! And CC1(C)CCn2c(=O)n(CC(O)CO)c3cccc1c32 (stereo not drawn) ?
Resp: > 16 µg/mL

Req: Thanks! And CC1(C)CCn2c(=O)c(=O)n(C[C@@H](O)[C@H](O)[C@H](O)CO)c3cccc1c32 ?
Resp: > 16 µg/mL
